This collection of values is drawn from PubChem BioAssay (NCATS).

Test: qHTS assay to identify inhibitors of the type 1 interferon - major histocompatibility complex class I in skeletal muscle: Counter screen cell viability and HiBit confirmation (AID 1347412); note: % is set by controls: 0 for no effect and ±100 for the full control effect; nearly all actives have a fitted effect of over 60% in size
Settings: iHSKM muscle cells + IFN-b, HiBiT or CellTiter-Glo, 24 h; Viability; at 45.9 µM (top of the series)
Results filed as inconclusive are left out.
Response key: yes (1) means activity change, negative = inhibition >= 10%; no (0) means activity change, negative = inhibition < 10%.

- Cc1ccc(NC(=O)Nc2cc(C(F)(F)F)ccc2F)cc1Nc1ccc2c(c1)NC(=O)/C2=C\c1ccc[nH]1: no (0)
- CN(C)C/C=C/C(=O)Nc1cccc(C(=O)Nc2cccc(Nc3ncc(Cl)c(-c4c[nH]c5ccccc45)n3)c2)c1: no (0)
- COCCN1CCN(Cc2ccc(-c3n[nH]c4c3C(=O)c3c(NC(=O)NN5CCOCC5)cccc3-4)cc2)CC1: yes (1)
- CS(=O)(=O)N1CCC(NC(=O)c2[nH]ncc2NC(=O)c2c(Cl)cccc2Cl)CC1: yes (1)

API: the following record is the query input.
Reported activity change, negative = inhibition reaches at least 10% for Cc1ccc(-c2ccc3c(ccc4sc5c(c43)NC[C@@H](C)NC5=O)n2)cn1 ? yes (1)

----------
Target: Phospholipid hydroperoxide glutathione peroxidase GPX4 (Homo sapiens) (UniProt P36969)
Sequence (P36969 whole entry, looked up): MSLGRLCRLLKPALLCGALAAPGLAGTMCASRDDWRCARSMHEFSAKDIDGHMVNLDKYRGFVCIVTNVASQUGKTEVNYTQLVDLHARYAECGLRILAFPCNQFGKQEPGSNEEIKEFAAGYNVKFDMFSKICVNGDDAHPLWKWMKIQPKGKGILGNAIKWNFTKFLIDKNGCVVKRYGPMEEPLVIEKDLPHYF
Test: Primary qHTS Assay for Inhibitors of Recombinant Selenoprotein Glutathione Peroxidase 4 (GPX4) (AID 1845192); note: % is set by controls: 0 for no effect and ±100 for the full control effect; nearly all actives have a fitted effect of over 65% in size
Conditions: recombinant GPX4, GR-coupled NADPH fluorescence, 15 min; series mostly up to 50 µM
Procedure: Assay Provider: Elias S.J. Arner MD PhD. Department of Medical Biochemistry and Biophysics Karolinska Institutet, Solna, Stockholm, Sweden […] 6; Detection; Fluorescence; ViewLux microplate reader, excitation 340 nm and emission 450 nm. […] 8; Detection; Fluorescence; ViewLux microplate reader, excitation 340 nm and emission 450 nm. […] 6. Initial fluorescence readout (t=0) at 340/450 nm was measured using a ViewLux multimodal detector (PerkinElmer, Waltham, MA). […]
Results filed as inconclusive are left out. The source made the active and inactive calls. Calls follow the shape of the dose curve; as a rule, active = well fitted inhibition curve with a large enough effect; inconclusive = small, poorly fitted or top-dose-only effect; inactive = flat fitted curve, though single readings scatter.
observation.type: activity change, negative = inhibition

* CC1=C(CO)C(=O)O[C@@H]([C@@H](C)[C@H]2CC[C@H]3[C@@H]4C[C@H]5O[C@]56[C@@H](O)C=CC(=O)[C@]6(C)[C@H]4CC[C@]23C)C1 | inactive
* CC1OC(OC2C(C)OC(OC3C(O)C(CO)OC(O[C@H]4CC[C@@]5(C)C(CC[C@]6(C)C5CC=C5C7[C@@H](C)[C@H](C)CC[C@]7(C(=O)O)CC[C@]56C(=O)O)C4(C)C)C3O)C(O)C2O)C(O)C(O)C1O (stereo not given in full) | inactive
* N[C@@]1(C(=O)O)CC[C@H]2[C@H](C(=O)O)[C@H]21 | inactive
* O=C(c1cc2c(cc1F)OC(c1ccc(F)cc1)(c1ccc(Cl)cc1Cl)O2)N1CCOCC1 (stereo not given) | inactive
* CC(C)(C)c1ccc(S(=O)(=O)Nc2ccc(Cl)cc2C(=O)c2cc[n+]([O-])cc2)cc1 | inactive
* CC(=O)NC[C@H]1CN(c2ccc(N3CCN(C(=O)CO)CC3)c(F)c2)C(=O)O1 | inactive
* CNC(=O)c1ccccc1Nc1nc(Nc2ccc3c(c2OC)CCCC(N2CCN(CCO)CC2)C3)ncc1Cl (stereo not given) | inactive
* O=C1NC(Cc2ccccc2)C(=O)N2CCCC12 (stereo not given) | inactive

Give activity change, negative = inhibition for all compounds that follow.
1. CC(C)=CCC/C(C)=C/CO[C@@H]1O[C@H](CO)[C@@H](OC(=O)/C=C/c2ccc(O)cc2)[C@H](O[C@@H]2O[C@@H](C)[C@H](O)[C@@H](O)[C@H]2O)[C@H]1O
2. COc1c2c(c(C)c3c1C(=O)OC3)OC1(C)CC(O)C(C(C)(C)O)C(C)(CCC(=O)O)C1C2 (stereo not given)
3. OC[C@H]1O[C@@H](O[C@H]2[C@H](OCc3ccccc3)O[C@H](CO[C@@H]3OC[C@@H](O)[C@H](O)[C@H]3O)[C@@H](O)[C@@H]2O)[C@H](O)[C@@H](O)[C@@H]1O
4. C=CC1(C)C=C2CCC3C(C)(C)C(O[C@@H]4O[C@@H](CO)[C@H](O)[C@H]4O)CCC3(C)C2CC1O[C@@H]1O[C@H](C)[C@H](O)[C@H](O)[C@H]1O (stereo not given in full)
5. CCNC(=O)C1OC(n2cnc3c(N)nc(NCCc4ccc(CCC(=O)O)cc4)nc32)C(O)C1O (stereo not given)
6. O=C1CCC=CC1(O)C(=O)OCc1ccccc1O[C@@H]1O[C@H](CO)[C@@H](O)[C@H](O)[C@H]1O (stereo not given in full)

1. inactive
2. inactive
3. inactive
4. inactive
5. inactive
6. inactive

# return recorded activity change, negative = inhibition for input COc1cc(O)cc(/C=C/c2ccc(O[C@@H]3O[C@H](CO)[C@@H](O)[C@H](O)[C@H]3O)cc2)c1 inactive

----------
System: HaCat
Test: Cytotoxic Profiling of Annotated Libraries Using Quantitative High-Throughput Screening (AID 1296008); note: nearly all actives have a fitted effect of over 60% in size; for max response: % is set by controls: 0 for no effect and ±100 for the full control effect
Details: Five cell lines viability, CellTiter-Glo ATP luminescence, 48-72 h; hits give low values
Results filed as inconclusive are left out.
observation.type: max response (%)
Give bare numbers, in %.

Known max response results, listed for orientation:
* CC1(C)CC[C@]2(C(=O)O)CC[C@]3(C)C(=CCC4[C@@]5(C)CC[C@H](O[C@@H]6O[C@H](C(=O)O)[C@@H](O[C@@H]7OC[C@@H](O)[C@H](O)[C@H]7O)[C@H](O)[C@H]6O)C(C)(C)C5CC[C@]43C)C2C1O (stereo partly drawn) | -24
* COC(=O)C1=CO[C@@H](O[C@@H]2O[C@H](CO)[C@@H](O)[C@H](O)[C@H]2O)[C@H]2[C@@H]1CC(OC)O[C@@H]2C (stereo partly drawn) | -16.4

# return recorded max response for input CO[C@H]1O[C@@H]2O[C@]3(C)CC[C@H]4[C@H](C)CC[C@@H]([C@H]1C)[C@@]24OO3 -0.0315

----------
Tested on: SKOV3
Experiment: Primary qHTS to identify gynecologic anti-cancer compounds using libraries of approved drugs and bioactive compounds (AID 1345084); note: nearly all actives have a fitted effect of over 55% in size
Details: Gynecologic cancer cell panel viability, ATPlite luminescence, 48 h; series mostly up to 57.5 µM
Results filed as inconclusive are left out. Activity calls are given as the source filed them. Calls follow the shape of the dose curve; as a rule, active = well fitted cell-killing curve with a large enough effect; inconclusive = small, poorly fitted or top-dose-only effect, or effect the other way; inactive = flat fitted curve, though single readings scatter.
Use one of these outcomes when replying: 1 (yes) = active, 0 (no) = inactive

Solved cases below.
- Nc1ccc(/C=C/C(=O)NCc2cc3cc(-c4ccc(C(=O)N5CCC(F)(F)CC5)cc4)cc(-c4ccc(F)cc4)c3o2)cn1: 1 (yes)
- O=C(COc1cccc2c(=O)[nH]ccc12)c1ccccc1: 0 (no)
- CC(C)=C/C=C\[C@H](C)[C@H]1CC[C@]2(C)C[C@@H]3C(C)=CC(=O)C3/C(CO)=C\C[C@@H]12 (some centres undefined): 0 (no)

API: the following record is the query input.
How did this test come out for C=C(C)[C@@H]1CC[C@]2(C)CC[C@]3(C)[C@H](CC[C@@H]4[C@@]5(C)CC[C@@H](O)C(C)(C)[C@@H]5CC[C@]43C)[C@@H]12 ? 0 (no)

----------
Tested on: HEK293
Assay: Cytotoxic Profiling of Annotated Libraries Using Quantitative High-Throughput Screening (AID 1296008); note: nearly all actives have a fitted effect of over 60% in size
Settings: Five cell lines viability, CellTiter-Glo ATP luminescence, 48-72 h
Procedure: Cell-based phenotypic screening is a commonly used approach to discover biological pathways, novel drug targets, chemical probes and high-quality hit-to-lead molecules. […] A pintool (Kalypsys) was used to transfer 23 nL of compound solution to the 1536-well assay plates. […] Plates were left at room temperature for 10 min before imaging the ATP-coupled luminescence using a ViewLux microplate imager (PerkinElmer, Waltham, MA).
Results filed as inconclusive are left out. Active and inactive are the calls of the source. Calls come from the whole dose curve; as a rule, active = well fitted inhibition curve with a large enough effect; inconclusive = small, poorly fitted or top-dose-only effect; inactive = flat fitted curve, though single readings scatter.
Use one of these outcomes when replying: active, inactive

- COc1ncc(Nc2ncc([C@H](C)N3CCN(S(C)(=O)=O)CC3)cc2-c2nc(C)nc(N)n2)cc1F: active
- COc1c2c(c(CO)c3c1C(=O)OC3)OC1(C)CCC3(O)C(C)(C)OC(=O)CCC3(C)C1C2 (stereo not drawn): inactive
- CC(Cc1cc2c(c(C(N)=O)c1)N(CCCO)CC2)NCCOc1ccccc1OCC(F)(F)F (stereo not drawn): active
- C[C@@H]1COCCN1c1cc(C2(S(C)(=O)=O)CC2)nc(-c2cccc3[nH]ccc23)n1: active

How did this test come out for CCCC(=O)C1CCN(c2ncnc3c2CN(C(=O)c2ccc(-c4ccccc4)cc2)CC3)CC1 ? active

How did this test come out for Nc1ncnc2c1nc(N)n2[C@@H]1O[C@H](CO)[C@@H](O)[C@H]1O ? active

How did this test come out for CC(O)c1cc(C(=O)N[C@@H](C)Cn2ccc(-c3ccc(C#N)c(Cl)c3)n2)n[nH]1 (stereo partly drawn) ? active

How did this test come out for CCCC(=O)NCCc1csc(-c2ccc(Cl)cc2)n1 ? active

How did this test come out for O=C(C(c1ccccc1)c1ccccc1)N1CCN(CC(O)COc2cccc3ncccc23)CC1 (stereo not drawn) ? active

How did this test come out for CC(=O)NC[C@H]1CN(c2ccc(N3CCN(C(=O)CO)CC3)c(F)c2)C(=O)O1 ? active
